B1: LINE1-full (parent)
chain: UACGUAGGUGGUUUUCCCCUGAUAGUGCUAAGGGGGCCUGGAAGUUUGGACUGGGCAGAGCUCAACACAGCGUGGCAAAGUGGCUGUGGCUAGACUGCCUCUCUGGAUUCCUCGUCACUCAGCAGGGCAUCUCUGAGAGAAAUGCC

Variants of: B1
Assay Info: self-cleavage, relative activity (ratio to wild type); higher = more cleavage; in vitro, sequencing; the parent is a self-cleaving ribozyme
Please mark satisfied if the recorded self-cleavage is equal to or greater than 1, and not satisfied if it falls below.

Worked examples, 10 variants total:
>  <Mutant>
G53U U73C

>  <Label>
satisfied

$$$$
>  <Mutant>
C76U U119C

>  <Label>
satisfied

$$$$
>  <Mutant>
G35A U134G

>  <Label>
not satisfied

$$$$
>  <Mutant>
G8C A22G

>  <Label>
not satisfied

$$$$
>  <Mutant>
U73C U143A

>  <Label>
satisfied

$$$$
>  <Mutant>
U5A A6U

>  <Label>
satisfied

$$$$
>  <Mutant>
U91A A92U

>  <Label>
satisfied

$$$$
>  <Mutant>
U52C A141U

>  <Label>
satisfied

$$$$
>  <Mutant>
A92G A124G

>  <Label>
not satisfied

$$$$
>  <Mutant>
A22G U109C

>  <Label>
satisfied

$$$$

Query: Please indicate if the recorded self-cleavage for G72A A117U meets or exceeds 1.
Response: satisfied
